The origin of these recorded values is the supplement of paper PMC11061612.

Tested on: NCI-H1688 (Small Cell Lung Carcinoma)
Assay: Bliss excess, mean over the matrix (fraction); higher = more synergy
measure: Bliss excess
Lab note: record just the number, no unit beside it.

1. COc1cc2c(cc1OCCCCCOc1cc3c(cc1OC)C(=O)N1C=C(C)C[C@H]1C=N3)N=C[C@@H]1CC(C)=CN1C2=O [SG3199] + O=C(c1cc(Cc2n[nH]c(=O)c3ccccc23)ccc1F)N1CCN(C(=O)C2CC2)CC1 [Olaparib] (first compound max 0.001 µM, 7x7, partner max 10 µM) ... -0.0264
2. C[C@@H]1COCCN1c1cc(C2([S@](C)(=N)=O)CC2)nc(-c2ccnc3[nH]ccc23)n1 [AZD6738] + O=C(c1cc(Cc2n[nH]c(=O)c3ccccc23)ccc1F)N1CCN(C(=O)C2CC2)CC1 [Olaparib] (first compound max 10 µM, 7x7, partner max 10 µM) ... 0.0133
3. COc1nnc2ccc(N3CCC(c4ccc(OCCN5CCN(C)C(=O)[C@H]5C)cc4)CC3)nn12 [AZD5153] + C=CCn1c(=O)c2cnc(Nc3ccc(N4CCN(C)CC4)cc3)nc2n1-c1cccc(C(C)(C)O)n1 [AZD1775] (first compound max 1 µM, partner max 1 µM) ... -0.0604
4. CC1(C)CCC(CN2CCN(c3ccc(C(=O)NS(=O)(=O)c4ccc(NCC5CCOCC5)c([N+](=O)[O-])c4)c(Oc4cnc5[nH]ccc5c4)c3)CC2)=C(c2ccc(Cl)cc2)C1 [Venetoclax] + C1CN(CCC1(C(=O)N[C@@H](CCO)C2=CC=C(C=C2)Cl)N)C3=NC=NC4=C3C=CN4 [Capivasertib] (first compound max 1 µM, 7x7, partner max 3 µM) ... -0.0065
5. COc1nnc2ccc(N3CCC(c4ccc(OCCN5CCN(C)C(=O)[C@H]5C)cc4)CC3)nn12 [AZD5153] + C[C@@H]1COCCN1C2=NC(=NC(=C2)C3(CC3)[S@](=N)(=O)C)C4=C5C=CNC5=NC=C4 [AZD6738] (first compound max 1 µM, 7x7, partner max 10 µM) ... 0.0719
6. CCN(CCO)CCCOc1ccc2c(Nc3cc(CC(=O)Nc4cccc(F)c4)[nH]n3)ncnc2c1 [AZD2811] + O=C(c1cc(Cc2n[nH]c(=O)c3ccccc23)ccc1F)N1CCN(C(=O)C2CC2)CC1 [Olaparib] (first compound max 1 µM, 7x7, partner max 10 µM) ... -0.0131

Enquiry: So what does the record say about Bliss excess for CN(CCO)CC[C@H](CSc1ccccc1)Nc1ccc(S(=O)(=O)NC(=O)c2ccc(N3CCC([C@@H](O)c4ccccc4-c4ccc(Cl)cc4)CC3)cc2)cc1S(=O)(=O)C(F)(F)F [AZD4320] + CCN(CCO)CCCOc1ccc2c(Nc3cc(CC(=O)Nc4cccc(F)c4)[nH]n3)ncnc2c1 [AZD2811] (first compound max 1 µM, 7x7, partner max 1 µM) ?
Return: 0.0729

* * *

Catalogue of molecules with associated Bliss excess
System: KG-1 (Acute Myeloid Leukemia)
Assay: Bliss excess, mean over the matrix (fraction); higher = more synergy
# answer = number (no unit)

Sample records with Bliss excess:
1. COc1cccc(OCCCN)c1-c1cc(Nc2cnc(C#N)cn2)n[nH]1 [Prexasertib] + Cc1cc2ncnn2cc1Nc1ncc2c(n1)n(C1CCOCC1)c(=O)n2C [AZD7648] (first compound max 1 µM, 7x7, partner max 10 µM) ... -0.0264
2. COc1cccc(OCCCN)c1-c1cc(Nc2cnc(C#N)cn2)n[nH]1 [Prexasertib] + C[C@@H]1COCCN1C2=NC(=NC(=C2)C3(CC3)[S@](=N)(=O)C)C4=C5C=CNC5=NC=C4 [AZD6738] (first compound max 1 µM, 7x7, partner max 10 µM) ... -0.0531
3. C[C@@H](c1ccc2nccn2c1)n1nnc2ncc(-c3cnn(C)c3)nc21 [Savolitinib] + CN(CC[C@H](CSC1=CC=CC=C1)NC2=C(C=C(C=C2)S(=O)(=O)NC(=O)C3=CC=C(C=C3)N4CCC(CC4)[C@H](C5=CC=CC=C5C6=CC=C(C=C6)Cl)O)S(=O)(=O)C(F)(F)F)CCO [AZD4320] (first compound max 1 µM, 7x7, partner max 1 µM) ... -0.0251
4. COc1nnc2ccc(N3CCC(c4ccc(OCCN5CCN(C)C(=O)[C@H]5C)cc4)CC3)nn12 [AZD5153] + Cc1c2c(nn1C)CSCc1cc(n(C)n1)CSc1cc(c3ccccc3c1)OCCCc1c(C(=O)O)n(C)c3c-2c(Cl)ccc13 [AZD5991] (first compound max 1 µM, 7x7, partner max 1 µM) ... 0.0382
5. Cc1nc(Nc2ncc(C(=O)Nc3c(C)cccc3Cl)s2)cc(N2CCN(CCO)CC2)n1 [Dasatinib] + CC(=O)Nc1cccc(-n2c(=O)n(C3CC3)c(=O)c3c(Nc4ccc(I)cc4F)n(C)c(=O)c(C)c32)c1 [Trametinib] (first compound max 2 µM, 7x7, partner max 1 µM) ... 0.0659
6. CN(CCO)CC[C@H](CSc1ccccc1)Nc1ccc(S(=O)(=O)NC(=O)c2ccc(N3CCC([C@@H](O)c4ccccc4-c4ccc(Cl)cc4)CC3)cc2)cc1S(=O)(=O)C(F)(F)F [AZD4320] + CN(C)CCCOc1ccc(-c2ccc3ncc4c(c3c2)n(C2CCOCC2)c(=O)n4C)cn1 [AZD0156] (first compound max 1 µM, 7x7, partner max 1 µM) ... 0.0215

# ---- query molecule ----
Enquiry: Fill in: Bliss excess of Cn1cnc2c(F)c(Nc3ccc(Br)cc3Cl)c(C(=O)NOCCO)cc21 [Selumetinib] + CCN(CCO)CCCOc1ccc2c(Nc3cc(CC(=O)Nc4cccc(F)c4)[nH]n3)ncnc2c1 [AZD2811] (first compound max 10 µM, 7x7, partner max 1 µM) is ___
Return: 0.0789

* * *

System: EW-22 (Ewing's Sarcoma)
Assay: combination Emax (second highest fraction inhibited in the dose matrix, 72 h); higher = more inhibition; extreme values may be limits of the assay
measure: combination Emax
Hey, just send me the number, nothing else.

1. CC1(C)CCC(CN2CCN(c3ccc(C(=O)NS(=O)(=O)c4ccc(NCC5CCOCC5)c([N+](=O)[O-])c4)c(Oc4cnc5[nH]ccc5c4)c3)CC2)=C(c2ccc(Cl)cc2)C1 [Venetoclax] + Cc1cc2ncnn2cc1Nc1ncc2c(n1)n(C1CCOCC1)c(=O)n2C [AZD7648] (first compound max 1 µM, 7x7, partner max 10 µM) ... 0.842

// moving on: another record for combination Emax
Enquiry: Look at this compound and give its reported combination Emax. Cc1c2c(nn1C)CSCc1cc(n(C)n1)CSc1cc(c3ccccc3c1)OCCCc1c(C(=O)O)n(C)c3c-2c(Cl)ccc13 [AZD5991] + Cn1cnc2c(F)c(Nc3ccc(Br)cc3Cl)c(C(=O)NOCCO)cc21 [Selumetinib] (first compound max 1 µM, 7x7, partner max 3 µM)
Return: 0.566

* * *

Tested on: JHH-6 (Hepatocellular Carcinoma)
Assay: combination Emax (second highest fraction inhibited in the dose matrix, 72 h); higher = more inhibition; extreme values may be limits of the assay
measure: combination Emax
A bare number is all that is needed in reply.

The following compounds have reported results that may help.
1) Cc1c2c(nn1C)CSCc1cc(n(C)n1)CSc1cc(c3ccccc3c1)OCCCc1c(C(=O)O)n(C)c3c-2c(Cl)ccc13 [AZD5991] + Cn1cnc2c(F)c(Nc3ccc(Br)cc3Cl)c(C(=O)NOCCO)cc21 [Selumetinib] (first compound max 1 µM, 7x7, partner max 3 µM) ... 0.253
2) CS(=O)(=O)CCNCc1ccc(-c2ccc3ncnc(Nc4ccc(OCc5cccc(F)c5)c(Cl)c4)c3c2)o1 [Lapatinib] + C[C@@H](Oc1cc(-c2cnn(C3CCNCC3)c2)cnc1N)c1c(Cl)ccc(F)c1Cl [Crizotinib] (first compound max 10 µM, 7x7, partner max 10 µM) ... 0.683

// switching to the query compound
Enquiry: For COc1cccc2c1C(=O)c1c(O)c3c(c(O)c1C2=O)C[C@@](O)(C(=O)CO)C[C@@H]3O[C@H]1C[C@H](N)[C@H](O)[C@H](C)O1 [Doxorubicin] + Cc1cc2ncnn2cc1Nc1ncc2c(n1)n(C1CCOCC1)c(=O)n2C [AZD7648] (first compound max 1 µM, 7x7, partner max 10 µM) , what is its reported combination Emax?
Return: 0.496

* * *

Test system: HCC38 (Breast Carcinoma)
Assay: Bliss excess, mean over the matrix (fraction); higher = more synergy
Reported Bliss excess values for a set of compounds
Reply: number alone, nothing else.

1) Cn1cnc2c(F)c(Nc3ccc(Br)cc3Cl)c(C(=O)NOCCO)cc21 [Selumetinib] + C=CCn1c(=O)c2cnc(Nc3ccc(N4CCN(C)CC4)cc3)nc2n1-c1cccc(C(C)(C)O)n1 [AZD1775] (first compound max 10 µM, partner max 1 µM) ... -0.0768
2) COc1cccc(OCCCN)c1-c1cc(Nc2cnc(C#N)cn2)n[nH]1 [Prexasertib] + Cc1cc2ncnn2cc1Nc1ncc2c(n1)n(C1CCOCC1)c(=O)n2C [AZD7648] (first compound max 1 µM, 7x7, partner max 10 µM) ... -0.0592
3) COc1nnc2ccc(N3CCC(c4ccc(OCCN5CCN(C)C(=O)[C@H]5C)cc4)CC3)nn12 [AZD5153] + C[C@@H]1COCCN1C2=NC(=NC(=C2)C3(CC3)[S@](=N)(=O)C)C4=C5C=CNC5=NC=C4 [AZD6738] (first compound max 1 µM, 7x7, partner max 10 µM) ... -0.0182
4) C[C@@H](c1ccc2nccn2c1)n1nnc2ncc(-c3cnn(C)c3)nc21 [Savolitinib] + Cc1c2c(nn1C)CSCc1cc(n(C)n1)CSc1cc(c3ccccc3c1)OCCCc1c(C(=O)O)n(C)c3c-2c(Cl)ccc13 [AZD5991] (first compound max 1 µM, 7x7, partner max 1 µM) ... -0.0279
5) CS(=O)(=O)CCNCc1ccc(-c2ccc3ncnc(Nc4ccc(OCc5cccc(F)c5)c(Cl)c4)c3c2)o1 [Lapatinib] + C[C@@H](Oc1cc(-c2cnn(C3CCNCC3)c2)cnc1N)c1c(Cl)ccc(F)c1Cl [Crizotinib] (first compound max 10 µM, 7x7, partner max 10 µM) ... -0.0049
6) C=CCn1c(=O)c2cnc(Nc3ccc(N4CCN(C)CC4)cc3)nc2n1-c1cccc(C(C)(C)O)n1 [AZD1775] + Nc1ccn([C@@H]2O[C@H](CO)[C@@H](O)C2(F)F)c(=O)n1 [Gemcitabine] (first compound max 1 µM, partner max 0.3 µM) ... 0.0214

Lab note: next compound to report on.
Enquiry: Need Bliss excess of CC(=O)c1c(C)c2cnc(Nc3ccc(N4CCNCC4)cn3)nc2n(C2CCCC2)c1=O [Palbociclib] + Cc1c2c(nn1C)CSCc1cc(n(C)n1)CSc1cc(c3ccccc3c1)OCCCc1c(C(=O)O)n(C)c3c-2c(Cl)ccc13 [AZD5991] (first compound max 10 µM, 7x7, partner max 1 µM) , thanks.
Return: -0.0244
